assay: inhibitors of the yeast RAM network, primary screen, dse1pr::URA3 reporter, 5-FOA selection (AID 868);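 further: 0% = DMSO-only wells with no growth and 100% = 10 µM 1-NA-PP1 full growth; inhibition rescues growth on 5-FOA so higher OD means more RAM inhibition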; conditions: S. cerevisiae dse1pr::URA3 reporter, 5-FOA growth OD615, 2 d; at 50 µM; hits give high values; analog-sensitive cbk1-as2 kinase mutant strain
Among all 190,000 compounds or so, about 3,500 (1.8%) were called active. The entries come from a sample that favours actives as a whole.

| Molecule | Units of measure | inhibition |
| --- | --- | --- |
| CN(CC(=O)Nc1ccc(S(=O)(=O)N2CCCC2)cc1)Cc1ccc(Cl)c(Cl)c1 | % | -0.13 |
| CCNC(=O)CC1C(=O)N(c2ccc(F)cc2)C(=O)N1Cc1cccs1 (centres undefined) | % | 0.28 |
| C=CCn1c(SCn2nnc3ccccc3c2=O)nnc1-c1ccc(Cl)cc1 | % | 1.52 |
| COc1ccc(-c2nc(-c3ccccc3)no2)c(OC)c1 | % | -0.68 |
| COCCN(CC(=O)Nc1ccccc1C)S(=O)(=O)c1ccc(S(=O)(=O)N2CCCC2)cc1 | % | 9.62 |
| N#CC(=C1SC=CS1)c1nc(-c2ccccc2)cs1 | % | 3.35 |
| O=C(Nc1ccccc1C(=O)N1CCCCCC1)c1ccccc1Cl | % | -0.13 |
| COc1cc(-c2nc(-c3ccncc3)no2)cc(OC)c1OC | % | 1.83 |
| O=c1oc(/C=C/c2ccccc2)nc2ccccc12 | % | 1.38 |
| Cc1ccc(-c2noc(CSc3nnc(-c4ccncc4)n3-c3ccc(F)cc3)n2)cc1 | % | 2.42 |
| COCc1c(C(=O)OCc2c(C)noc2C)oc2ccccc12 | % | 0.88 |
| COc1c(C)cc(C(=O)C2CCCN(S(=O)(=O)c3c(C)noc3C)C2)cc1C (centres undefined) | % | 5.32 |
| CCOC(=O)c1cc2occc2n1CC(=O)NC1CCC(C)CC1 (centres undefined) | % | 1.74 |
| CC(=O)NC1C(Oc2ccc(C=O)cc2)OC(COC(C)=O)C(OC(C)=O)C1OC(C)=O (centres undefined) | % | 1.12 |
| COc1ccc(O[C@H]2C=C[C@@H](c3ccccc3)O[C@@H]2CO/N=C/C[C@@H]2C=C[C@H](OC(C)=O)[C@@H](COC(C)=O)O2)cc1 | % | 13.9 |
| COc1cccc(NC(=S)NC(=O)c2c(Cl)c(C)nn2C)c1 | % | 8.92 |
| COc1ccc(OCC(=O)OCC(=O)Nc2ccc(S(=O)(=O)N3CCCCC3)cc2)cc1 | % | 4.54 |
| Cc1c(C=O)c2ccccc2n1CC(=O)O | % | 0 |
| O=C(O)C1CC=C(Cl)CC1C(=O)NCc1ccccc1 (centres undefined) | % | 1.08 |
| O=C(Nc1cccc(C(F)(F)F)c1)c1cnccn1 | % | 3.61 |
| CCN1CCN(C(=O)c2ccc(CN(c3ccc(C)c(C)c3)S(C)(=O)=O)cc2)CC1 | % | 0.38 |
| O=C(CSCc1ccc(Br)cc1)Nc1ccc(S(=O)(=O)N2CCCCCC2)cc1 | % | 19.5 |
| CSCc1ccc(C(=O)Nc2cc(C)cc(C)c2)cc1 | % | 10.7 |
| COC(=O)Nc1sc2nc(C)cc(C)c2c1-n1cccc1 | % | 0.22 |
| CCC1CCCCN1CCCNC(=O)c1cc2c(Cl)nc3ccccc3c2s1 (centres undefined) | % | 1.99 |
| COC(=O)c1cc2occc2n1Cc1nc(-c2ccccc2C)oc1C | % | 10.4 |
| COc1cc(C(=O)NNC(=O)c2ccc(S(=O)(=O)N3CCCCC3)cc2)cc(OC)c1OC | % | 3.63 |
| COc1ccc(/C(C)=N/NC(=O)CCC(=O)Nc2ccc(Cl)cc2Cl)c(OC)c1 | % | 0.4 |
| COc1ccc(/C(C)=N/Nc2cc(C(F)(F)F)ccc2Cl)c(OC)c1 | % | 13.5 |
| COc1ccc(-c2noc(-c3cccc(OC)c3OC)n2)cc1OC | % | 8.94 |
| Cc1cc(C)c2c(-n3cccc3)c(NC(=O)OCc3ccccc3)sc2n1 | % | 5.58 |
| CC(=O)NC1C(OCc2ccccc2)OC(COC(C)=O)C(OC(C)=O)C1OC(C)=O (centres undefined) | % | 1.66 |
| Nc1nc(SCc2ccc([N+](=O)[O-])cc2)c2ncn(C3OC(CO)C(O)C3O)c2n1 (centres undefined) | % | 1.26 |
| CCN1CCN(C(=O)CN(C)S(=O)(=O)c2ccc3ccccc3c2)CC1 | % | 1.12 |
| O=C(NCc1ccccc1)[C@H]1C[C@@H]1[C@H](NP(=O)(c1ccccc1)c1ccccc1)c1ccccc1 | % | 19 |
| N#CC(=C1CCCC1)c1nc(-c2ccc(Cl)cc2)cs1 | % | 9.11 |
| C/C(=N\NC(=O)c1cccnc1)c1ccc(-n2ccnc2)cc1 | % | 2.36 |
| C=CCn1c(-c2ccc(Cl)cc2)ccc(C#N)c1=O | % | 10.6 |
| Cc1cc(C)n(-c2ccc3nncn3n2)n1 | % | 1.87 |
| Cc1nn(C)c(C(=O)NNC(=S)NC2CCCCC2)c1Cl | % | 0.28 |
| O=C(Nc1ccccc1)N1CCN(C(=O)Nc2ccccc2)CC1 | % | 2.76 |
| COc1cccc(NC(=S)NCc2ccccn2)c1 | % | 2.63 |
| COc1ccc(NS(=O)(=O)c2ccc(NC(=S)NC(=O)CC(C)C)cc2)cc1 | % | 9.99 |
| N#C/C(=C1\CCCN1)c1nc(-c2ccccc2)cs1 | % | 3.76 |

---

experiment: inhibitors of the yeast RAM network, primary screen, dse1pr::URA3 reporter, 5-FOA selection (AID 868);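 further: 0% = DMSO-only wells with no growth and 100% = 10 µM 1-NA-PP1 full growth; inhibition rescues growth on 5-FOA so higher OD means more RAM inhibition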; details: S. cerevisiae dse1pr::URA3 reporter, 5-FOA growth OD615, 2 d; at 50 µM; hits give high values; analog-sensitive cbk1-as2 kinase mutant strain
The campaign covered roughly 190,000 compounds. About 3,500 (1.8%) were called active. The sample holds actives, similar compounds and a random draw of the others, so the mix is not that of the screen.
Measure: inhibition (%)

| Molecule | Units of measure | Quantitative readout |
| --- | --- | --- |
| COc1ccccc1NC(=O)CSc1nc2sc(C)c(C)c2c(=O)n1Cc1ccco1 | % | 4.61 |
| O=[N+]([O-])c1cc(S(=O)(=O)CCCN2CCOCC2)ccc1F | % | -0.13 |
| CCOC(=O)CSc1nc2c(c(=O)n(C)c(=O)n2C)n1Cc1ccccc1F | % | 5.16 |
| CCC1=C/C(=C\c2ccc3c(c2)OCO3)C(=O)S1 | % | 5.39 |
| Cc1ccc(-n2c(SCC(=O)N/N=C/C=C/c3ccccc3[N+](=O)[O-])nc3ccccc3c2=O)cc1 | % | 10.3 |
| O=C1/C(=C/c2ccc3c(c2)OCO3)CCC/C1=C\c1ccc2c(c1)OCO2 | % | 11.6 |
| CCOC(=O)CSc1nc2c(sc(=S)n2CCc2ccccc2)c(=O)n1Cc1ccco1 | % | 10.1 |
| O=C(CSc1nc2ccccc2[nH]1)N/N=C/C=C\c1ccccc1[N+](=O)[O-] | % | 0.9 |
| CNS(=O)(=O)c1ccc(NC(=O)C2CC(=O)N(c3ccc(Cl)cc3)C2)cc1 (stereo not given) | % | 4.28 |
| CCn1c(SCC(=O)N/N=C/C=C/c2ccccc2[N+](=O)[O-])nnc1-c1ccccc1 | % | 0.99 |

---

assay: inhibitors of the yeast RAM network, primary screen, dse1pr::URA3 reporter, 5-FOA selection (AID 868);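 further: 0% = DMSO-only wells with no growth and 100% = 10 µM 1-NA-PP1 full growth; inhibition rescues growth on 5-FOA so higher OD means more RAM inhibition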; conditions: S. cerevisiae dse1pr::URA3 reporter, 5-FOA growth OD615, 2 d; at 50 µM; hits give high values; analog-sensitive cbk1-as2 kinase mutant strain
Screen size: about 190,000 compounds; about 3,500 (1.8%) were called active. The entries come from a sample that favours actives as a whole.
This section presents molecules with their documented inhibition values.

| Molecule | inhibition / % |
| --- | --- |
| COc1ccc(OC)c(/C=C/C(=O)OCC(=O)Nc2ccc3c(c2)OCCO3)c1 | 7.42 |
| CCCSc1nc(NCc2ccco2)c2c3c(sc2n1)COC(C)(CC)C3 (stereo not given) | 13.4 |
| COc1cc(/C=C/C(=O)OCC(=O)Nc2cccc(Oc3ccccc3)c2)ccc1O | 7.29 |
| CCN(C(=O)COC(=O)/C=C/c1nc2ccccc2s1)C1CCS(=O)(=O)C1 (stereo not given) | 2.32 |
| CC(=O)Nc1ccc(SCC(=O)Nc2ccccc2Oc2ccccc2)cc1 | 1.01 |

---

assay: inhibitors of the yeast RAM network, primary screen, dse1pr::URA3 reporter, 5-FOA selection (AID 868);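 further: 0% = DMSO-only wells with no growth and 100% = 10 µM 1-NA-PP1 full growth; inhibition rescues growth on 5-FOA so higher OD means more RAM inhibition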; conditions: S. cerevisiae dse1pr::URA3 reporter, 5-FOA growth OD615, 2 d; at 50 µM; analog-sensitive cbk1-as2 kinase mutant strain
Among all 190,000 compounds or so, about 3,500 (1.8%) were called active.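 Rule for the calls: active = inhibition above a set limit, 3 SD over mean compound inhibition (cut at about 8.4% in these data); inactive = the rest.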 Only a selection was taken, and actives are over-represented in it overall.
Outcomes: true = active, false = inactive

| Compound | Assigned category |
| --- | --- |
| CCOC(=O)N1CCN(C(=O)c2cc3c(-c4ccc(Cl)cc4)nn(C)c3s2)CC1 | false |
| CC(=O)Nc1ccc(S(=O)(=O)Nc2ccc(-c3ccc4nnc(C)n4n3)cc2)cc1 | false |
| COc1ccc(/C=C/C(=O)c2ccc(NS(=O)(=O)c3ccc(C)cc3)cc2)cc1O | true |
| COc1ccc(NS(=O)(=O)c2ccc(NC(C)=O)cc2)cc1OC | false |
| COc1cccc(-c2nn(C)c3sc(C(=O)N4CCN(c5ccccc5)CC4)cc23)c1 | true |
| CN1CCN(c2ccc(NC(=O)COc3ccc(Cl)cc3Cl)cc2)CC1 | false |
| Cc1ccc(NC(=O)COc2ccc(-n3ccnc3)cc2)cc1Cl | true |
| Cc1ccc(N2C(=O)C3CC3C2=O)cc1 (stereo unspecified) | false |
| CC1=C(C)CC(C(=O)NC(C)CCc2ccccc2)C(C(=O)O)C1 (stereo unspecified) | false |
| COc1ccc(C(=O)Oc2cc(/C=N/NS(=O)(=O)c3ccc(C)cc3)ccc2OC)cc1 | false |
| CCC1C/C(=C/c2cccs2)C(=O)/C(=C/c2cccs2)C1 (stereo unspecified) | true |
